test: Pharmacokinetics of decitabine in IVAP rabbit model; assay type: in vivo, rabbits; details: rabbit, plasma, iv, 2.5 mg/kg, IV 2.5 mg/kg; read-out: IV AUC0-inf, individual

chemicalString: Nc1ncn([C@H]2C[C@H](O)[C@@H](CO)O2)c(=O)n1
AUC(0-inf) [ng·h/mL]: 1170

###

experiment: Pharmacokinetics of decitabine in IVAP rabbit model; format: in vivo, rabbits; details: IV 1.5 mg/kg, 60 min

molecule: Nc1ncn([C@H]2C[C@H](O)[C@@H](CO)O2)c(=O)n1 [decitabine, 5-aza-2′-deoxycytidine]
concentration SYS, Mean: 156 ng/mL

###

assay: Pharmacokinetics of decitabine in IVAP rabbit model; format: in vivo, rabbits; settings: rabbit, plasma, Overall mean of all doses and routes

chemicalString: Nc1ncn([C@H]2C[C@H](O)[C@@H](CO)O2)c(=O)n1
half-life / min: 43.2
